Origin of the recorded values: patent US20230233569A1

- system: KRAS G12D (Homo sapiens, UniProt P01116+P62937, G12D)
- Sequence (P01116 1-169 isoform P01116-2 G12D limits assumed): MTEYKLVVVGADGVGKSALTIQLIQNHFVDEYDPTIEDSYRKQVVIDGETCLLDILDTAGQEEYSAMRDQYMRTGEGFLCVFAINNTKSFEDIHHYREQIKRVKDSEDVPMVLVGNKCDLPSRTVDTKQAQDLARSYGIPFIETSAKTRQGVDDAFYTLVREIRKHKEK
- Sequence (P62937 whole entry): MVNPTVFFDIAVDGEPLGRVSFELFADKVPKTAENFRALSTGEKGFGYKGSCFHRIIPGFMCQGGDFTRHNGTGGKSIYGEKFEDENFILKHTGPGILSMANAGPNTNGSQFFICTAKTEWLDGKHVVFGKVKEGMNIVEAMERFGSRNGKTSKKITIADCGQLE
- measurement_notes: Ras-Raf disruption / FRET / MOA assay (BRAF RBD)
- Type: biochemical
- condition_details: Ras-Raf disruption, with Cyclophilin A; read-out: KRAS G12D FRET data IC50
- From the text: Disruption of […] Ras-binding Domain (BRAF^RBD) Interaction with K-Ras by Compounds of the Invention (also Called a FRET Assay or an MOA Assay) Note—The following protocol describes a procedure for monitoring disruption of K-Ras G12C (GMP-PNP) binding to BRAF^RBD by a compound of the invention. This protocol may also be executed substituting other Ras proteins or nucleotides, such as K-Ras G12D and K-Ras G13D. […]
pIC50: −log10 of the molar value.
metric_name: pIC50

[
  {
    "compound": "CCn1c(-c2cccnc2[C@H](C)OC)c2c3cc(ccc31)-c1cc(O)cc(c1)C[C@H](NC(=O)[C@H](C(C)C)N(C)C(=O)[C@]1(F)CCN(C(=O)[C@@H]3CN3)C1)C(=O)N1CCC[C@H](N1)C(=O)OCC(C)(C)C2 (atropisomer, axis not shown)",
    "system": "KRAS G12D (Homo sapiens, UniProt P01116+P62937, G12D)",
    "metric_name": "pIC50",
    "readout_value": "6.00 to 7.00"
  },
  {
    "compound": "CCn1c(-c2cccnc2[C@H](C)OC)c2c3cc(ccc31)-c1cc(O)cc(c1)C[C@H](NC(=O)[C@H](C(C)C)N(C)C(=O)CC1CN(C(=O)[C@@H]3CN3)C1)C(=O)N1CCC[C@H](N1)C(=O)OCC(C)(C)C2",
    "system": "KRAS G12D (Homo sapiens, UniProt P01116+P62937, G12D)",
    "metric_name": "pIC50",
    "readout_value": "6.00 to 7.00"
  },
  {
    "compound": "CCn1c(-c2cccnc2[C@H](C)OC)c2c3cc(ccc31)-c1cc(O)cc(c1)C[C@H](NC(=O)[C@H](C(C)C)N(C)C(=O)CN(C)S(=O)(=O)[C@H]1CN1C)C(=O)N1CCC[C@H](N1)C(=O)OCC(C)(C)C2 (single isomer, unassigned)",
    "system": "KRAS G12D (Homo sapiens, UniProt P01116+P62937, G12D)",
    "metric_name": "pIC50",
    "readout_value": "6.00 to 7.00"
  },
  {
    "compound": "CCn1c(-c2cccnc2[C@H](C)OC)c2c3cc(ccc31)-c1csc(n1)C[C@H](NC(=O)[C@H](C(C)C)N(C)C(=O)N1CCN(C(=O)[C@H]3CN3)[C@@H](C)C1)C(=O)N1CCC[C@H](N1)C(=O)OCC(C)(C)C2",
    "system": "KRAS G12D (Homo sapiens, UniProt P01116+P62937, G12D)",
    "metric_name": "pIC50",
    "readout_value": "6.00 to 7.00"
  },
  {
    "compound": "CCn1c(-c2cccnc2[C@H](C)OC)c2c3cc(ccc31)-c1cc(O)cc(c1)C[C@H](NC(=O)[C@@H](COC1CCN(C(=O)[C@H]3CN3)CC1)C(C)C)C(=O)N1CCC[C@H](N1)C(=O)OCC(C)(C)C2 (atropisomer, axis not shown)",
    "system": "KRAS G12D (Homo sapiens, UniProt P01116+P62937, G12D)",
    "metric_name": "pIC50",
    "readout_value": "5.00 to 6.00"
  },
  {
    "compound": "CCn1c(-c2cccnc2[C@H](C)OC)c2c3cc(ccc31)-c1cc(O)cc(c1)C[C@H](NC(=O)[C@H](C(C)C)N1CCC3(CCN(C(=O)[C@H]4CN4)C3)C1=O)C(=O)N1CCC[C@H](N1)C(=O)OCC(C)(C)C2 (some centres unmarked)",
    "system": "KRAS G12D (Homo sapiens, UniProt P01116+P62937, G12D)",
    "metric_name": "pIC50",
    "readout_value": "7.00 to 8.00"
  },
  {
    "compound": "CCn1c(-c2cccnc2[C@H](C)OC)c2c3cc(ccc31)-c1csc(n1)C[C@H](NC(=O)[C@H](C(C)C)N(C)C(=O)N1CC[C@@H](N(C)C(=O)[C@@H]3CN3)C1)C(=O)N1CCC[C@H](N1)C(=O)OCC(C)(C)C2 (atropisomer, axis not shown)",
    "system": "KRAS G12D (Homo sapiens, UniProt P01116+P62937, G12D)",
    "metric_name": "pIC50",
    "readout_value": "6.00 to 7.00"
  },
  {
    "compound": "CCn1c(-c2cccnc2[C@H](C)OC)c2c3cc(ccc31)-c1cc(O)cc(c1)C[C@H](NC(=O)[C@H](C(C)C)N(C)C(=O)c1ccc([C@@H]3CN3)cc1)C(=O)N1CCC[C@H](N1)C(=O)OCC(C)(C)C2",
    "system": "KRAS G12D (Homo sapiens, UniProt P01116+P62937, G12D)",
    "metric_name": "pIC50",
    "readout_value": "6.00 to 7.00"
  }
]
